system: BTK enzyme (recombinant full-length BTK, hBTK) (Homo sapiens, UniProt Q06187)
Construct: recombinant protein from baculovirus-transfected Sf9 cells: full-length BTK, 6HIS-tag cleaved; 6HIS (cleaved yes)
Sequence (Q06187 whole entry): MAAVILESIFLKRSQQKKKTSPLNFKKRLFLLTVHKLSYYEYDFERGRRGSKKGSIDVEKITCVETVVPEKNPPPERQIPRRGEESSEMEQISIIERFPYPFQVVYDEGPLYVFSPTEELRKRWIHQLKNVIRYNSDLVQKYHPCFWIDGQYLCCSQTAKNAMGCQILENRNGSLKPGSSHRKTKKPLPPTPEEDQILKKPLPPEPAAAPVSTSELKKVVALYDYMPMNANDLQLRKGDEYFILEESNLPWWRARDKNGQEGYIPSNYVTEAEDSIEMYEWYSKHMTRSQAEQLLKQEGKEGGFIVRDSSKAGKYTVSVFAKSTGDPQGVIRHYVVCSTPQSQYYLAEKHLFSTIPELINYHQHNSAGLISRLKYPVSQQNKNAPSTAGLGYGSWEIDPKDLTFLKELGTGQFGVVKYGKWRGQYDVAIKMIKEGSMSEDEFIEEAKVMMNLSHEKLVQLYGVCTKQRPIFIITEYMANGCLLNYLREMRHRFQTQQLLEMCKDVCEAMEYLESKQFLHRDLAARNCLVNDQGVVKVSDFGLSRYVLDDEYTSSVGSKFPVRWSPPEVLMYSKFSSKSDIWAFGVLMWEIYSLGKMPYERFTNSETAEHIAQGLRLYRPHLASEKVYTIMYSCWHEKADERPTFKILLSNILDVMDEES
test-protocol: Btk enzyme activity assay (LANCE TR-FRET)
recorded-conditions: 60 minute compound & enzyme incubation, 50 pM hBTK, 25 μM ATP, read-out: BTK binding IC50
Each entry below carries its recorded pIC50.
pIC50 is defined as minus the log10 of a concentration measured in mol/L.

Please review the entries below; each comes with its answer.
>>> result_number("Cc1nccn2c([C@@H]3CCCN3C#N)nc(-c3ccc(C(=O)Nc4ccccn4)cc3)c12")
6.43
>>> result_number("N#CN1CCC[C@H]1c1nc(-c2ccc(C(=O)Nc3cc(C4CC4)ccn3)cc2)c2c(N)nccn12")
7.17
>>> result_number("C[C@H]1CO[C@@H](c2nc(-c3ccc(C(=O)Nc4cc(C(F)(F)F)ccn4)cc3F)c3c(N)ncc(Cl)n23)CN1C#N")
9.32
>>> result_number("N#CN1CCO[C@@H](c2nc(-c3ccc(C(=O)Nc4cc(C(F)(F)F)ccn4)cc3)c3c(N)nccn23)C1")
9.11
>>> result_number("N#CN1CCC[C@H]1c1nc(-c2ccc(C(=O)Nc3cc(F)ccn3)cc2)c2c(N)nccn12")
7.31

Ask | Give the measured pIC50 of N#CN1CCOC(c2nc(-c3ccc(C(=O)Nc4cc(C(F)(F)F)ccn4)cc3)c3c(N)nccn23)C1 (stereo not shown) .
Reply | 8.41

Ask | Try COc1ccnc(NC(=O)c2ccc(-c3nc([C@@H]4CCCN(C#N)C4)n4ccnc(N)c34)cc2)c1 next.
Reply | 9.39

Reference for the values: patent US20180079752A1
